FYI, the data here is from PubChem BioAssay (EPA / NIEHS).

- Procedure summary: ATG_NRF2_ARE_CIS: Attagene CIS-FACTORIAL HepG2 Assay for human Nuclear Factor Erythroid 2 Related Factor 2 (NFR2) response to Antioxidant Response Elements (ARE) (AID 2282992)
- Experimental conditions: HepG2 Attagene ARE/NRF2 reporter, transcription factor activity; actives raise or lower the signal
Activity calls are given as the source filed them. Rule for the calls: active = hit-call score of the fitted dose curve at least 0.9, where 1 is the maximum; inactive = score below 0.9.

Compound	outcome
CCOc1ccc2c(c1)C(C)CC(C)(C)N2 (configuration not stated)	inactive
CCCCCC1CCCC(=O)O1 (configuration not stated)	inactive
CCCN[C@H]1CCc2nc(N)sc2C1	inactive
CCC(C)C1N=C(C)C(C)S1 (configuration not stated)	inactive
O=C(O)/C=C\C(=O)O	inactive
CN(C)CCC(c1ccc(Cl)cc1)c1ccccn1 (configuration not stated)	inactive
CNC(=C[N+](=O)[O-])NCCSCc1csc(CN(C)C)n1	inactive

---

- Target entity: Cellular tumor antigen p53 (Homo sapiens) (UniProt P04637)
- Sequence (P04637 whole entry, looked up): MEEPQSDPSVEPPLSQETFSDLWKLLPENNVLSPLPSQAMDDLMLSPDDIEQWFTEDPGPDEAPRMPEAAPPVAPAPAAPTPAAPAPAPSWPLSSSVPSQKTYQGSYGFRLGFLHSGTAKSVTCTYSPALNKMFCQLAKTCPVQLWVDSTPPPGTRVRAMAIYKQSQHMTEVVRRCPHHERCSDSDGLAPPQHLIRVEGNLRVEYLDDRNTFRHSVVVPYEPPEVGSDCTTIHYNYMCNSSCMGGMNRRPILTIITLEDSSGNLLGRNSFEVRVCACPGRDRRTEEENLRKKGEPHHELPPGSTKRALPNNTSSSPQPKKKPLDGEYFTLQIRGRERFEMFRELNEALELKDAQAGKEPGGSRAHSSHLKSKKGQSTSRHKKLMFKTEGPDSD
- Procedure summary: TOX21_p53_BLA_p5_ratio: Tox21 HCT-116 p53 Agonism Beta-lactamase Assay, Ratio, Phase 5 (AID 2283599)
Results filed as inconclusive are left out. The source made the active and inactive calls. How the source made its calls: active means hit-call score of the fitted dose curve at least 0.9, where 1 is the maximum; inconclusive means response in the unintended direction; inactive means score below 0.9.
Classes used: active, inactive

Molecule	Target entity	Classification
OC1(c2ccc(Cl)c(C(F)(F)F)c2)CCN(CCCC(c2ccc(F)cc2)c2ccc(F)cc2)CC1	Cellular tumor antigen p53 (Homo sapiens) (UniProt P04637)	active
CC1=C(C=O)C(C)(C)CC=C1	Cellular tumor antigen p53 (Homo sapiens) (UniProt P04637)	inactive
CCCC(C)c1ccccc1O (centres undefined)	Cellular tumor antigen p53 (Homo sapiens) (UniProt P04637)	inactive
C[C@@H]1C[C@H]2[C@@H]3CCC4=CC(=O)C=C[C@]4(C)[C@@]3(F)[C@@H](O)C[C@]2(C)[C@@]1(O)C(=O)COC(=O)c1cccc(S(=O)(=O)O)c1	Cellular tumor antigen p53 (Homo sapiens) (UniProt P04637)	inactive
CCN[C@@H]1C[C@H](N)[C@@H](OC2OC(CN)=CCC2N)[C@H](O)[C@H]1O[C@H]1OC[C@](C)(O)[C@H](NC)[C@H]1O (some centres undefined)	Cellular tumor antigen p53 (Homo sapiens) (UniProt P04637)	inactive
Cc1occc1SSc1ccoc1C	Cellular tumor antigen p53 (Homo sapiens) (UniProt P04637)	inactive
CCC(C)[C@H]1O[C@]2(C=C[C@@H]1C)C[C@@H]1C[C@@H](C/C=C(\C)[C@@H](O[C@H]3C[C@H](OC)[C@@H](O[C@H]4C[C@H](OC)[C@H](NC(C)=O)[C@H](C)O4)[C@H](C)O3)[C@@H](C)/C=C/C=C3\CO[C@@H]4[C@H](O)C(C)=C[C@@H](C(=O)O1)[C@]34O)O2 (some centres undefined)	Cellular tumor antigen p53 (Homo sapiens) (UniProt P04637)	active
Cc1c(C(C)C)c(=O)n(-c2ccccc2)n1C	Cellular tumor antigen p53 (Homo sapiens) (UniProt P04637)	inactive
C=COCC(C)C	Cellular tumor antigen p53 (Homo sapiens) (UniProt P04637)	inactive

---

- Procedure summary: TOX21_p53_BLA_p2_viability: Viability Assessment in the Tox21 HCT-116 p53 Agonism Beta-lactamase Assay, Phase 2 (AID 2283591);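 note: compound exposure lasted 16 h at 37 °C; actives lower the ATP signal meaning cytotoxicity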
Results filed as inconclusive are left out. Calls of active or inactive are those of the source. How the source made its calls: active means hit-call score of the fitted dose curve at least 0.9, where 1 is the maximum; inconclusive means response in the unintended direction; inactive means score below 0.9.
Labels: active, inactive

Compound	Classification
CCCCOCCOC(=O)COc1cc(Cl)c(Cl)cc1Cl	inactive
O=[N+]([O-])c1ccc2[nH]ncc2c1	inactive
CCO[Si](OCC)(OCC)OCC	inactive
C[N+]1(C)[C@@H]2CC(OC(=O)C(O)(c3cccs3)c3cccs3)C[C@H]1[C@@H]1O[C@@H]12 (some centres undefined)	inactive
NS(=O)(=O)c1cc(C(=O)O)cc(N2CCCC2)c1Oc1ccccc1	inactive
CC(C)(C)NCC(O)c1cc(O)cc(O)c1 (centres undefined)	inactive
COCC(=O)O[C@]1(CCN(C)CCCc2nc3ccccc3[nH]2)CCc2cc(F)ccc2[C@@H]1C(C)C	active
CC[C@H]1OC(=O)[C@H](C)[C@@H](O[C@H]2C[C@@](C)(OC)[C@@H](O)[C@H](C)O2)[C@H](C)[C@@H](O[C@@H]2O[C@H](C)C[C@H](N(C)C)[C@H]2O)[C@](C)(O)C[C@@H](C)CN(C)[C@H](C)[C@@H](O)[C@]1(C)O	inactive
NCCc1cnc[nH]1	inactive
CC(=O)CCc1ccc(OC(C)=O)cc1	inactive
CC(=O)N(O)CCCCCNC(=O)CCC(=O)N(O)CCCCCNC(=O)CCC(=O)N(O)CCCCCN	inactive
Oc1cc(O)c2c(c1)O[C@H](c1ccc(O)c(O)c1)[C@H](O)C2	inactive
OCCN1CCN(CCCN2c3ccccc3Sc3ccc(Cl)cc32)CC1	inactive
CC(C)N=c1cc2n(-c3ccc(Cl)cc3)c3ccccc3nc-2cc1Nc1ccc(Cl)cc1	inactive
CC1=C(/C=C/C(C)=C/C=C/C(C)=C/C=O)C(C)(C)CCC1	active
CC[N+](C)(CC)CCOC(=O)C(O)(c1ccccc1)C1CCCCC1 (centres undefined)	inactive
CN1CCN(CCC=C2c3ccccc3Sc3ccc(S(=O)(=O)N(C)C)cc32)CC1	inactive
O=C(NC(Cc1cc(=O)[nH]c2ccccc12)C(=O)O)c1ccc(Cl)cc1 (centres undefined)	inactive
COc1ccc(N=[N+]([O-])c2ccc(OC)cc2)cc1	inactive
CC1c2ccccc2CN1NC(=O)c1ccc(Cl)c(S(N)(=O)=O)c1 (centres undefined)	inactive
CCCCC(=O)OCC(=O)[C@]1(O)Cc2c(O)c3c(c(O)c2[C@@H](O[C@H]2C[C@H](NC(=O)C(F)(F)F)[C@H](O)[C@H](C)O2)C1)C(=O)c1c(OC)cccc1C3=O	inactive
Cn1c(O)c(N=NC(N)=S)c2ccccc21	inactive
CCC(C)SSC(C)CC (centres undefined)	inactive
CC1=C(CC=O)C(C)(C)CCC1	inactive
C[C@]12CC[C@@H]3c4ccc(OS(=O)(=O)O)cc4CC[C@H]3[C@@H]1CCC2=O	inactive
Oc1ccccc1C=NCc1ccccc1	inactive
N#CCC(=O)NN	inactive
CCOC(=O)Cc1ccc(-c2ccccc2)cc1	inactive
C[C@@H](NCCCc1cccc(C(F)(F)F)c1)c1cccc2ccccc12	active
O=C1CCC(c2ccccc2)(C2CCN(Cc3ccccc3)CC2)C(=O)N1 (centres undefined)	inactive
CCN(CC)c1ccc(C(=C2C=CC(=[N+](CC)CC)C=C2)c2ccccc2)cc1	active
CCCC[P+](C)(CCCC)CCCC	inactive
C1C[C@@H]2[C@H]3CC[C@H](C3)[C@@H]2C1	inactive
O=S(=O)(O)CCS	inactive
CCN(CC)CCOCCOC(=O)C1(c2ccccc2)CCCC1	inactive
C=CCONC(CCC)=C1C(=O)CC(C)(C)C(C(=O)OC)=C1O	inactive
CCCCCCCCCCCCC(=O)O	inactive
CCCCCCC(O)CCCCCCCCCCC(=O)OC (centres undefined)	inactive
O=C(O)[C@H](CC(=O)N1C[C@H]2CCCC[C@H]2C1)Cc1ccccc1	inactive
CC[C@@H](C)[C@@H](N)C(=O)O	inactive
CC1CC(=O)NN=C1c1ccc(NCC(C)(C)NCC(O)COc2cc(Cl)ccc2C#N)cc1 (centres undefined)	inactive
Cc1c(C(=O)NN2CCCCC2)nn(-c2ccc(Cl)cc2Cl)c1-c1ccc(Cl)cc1	active
CCCCCCCCCCCCCCCCCCNC(=O)OC1CCN(C(=O)OC[C@H](COC(=O)N(Cc2cccc[n+]2CC)C(=O)c2ccccc2OC)OC)CC1	inactive
C=CC(C)(O)CC/C=C(\C)CCC=C(C)C (centres undefined)	inactive

---

- Procedure summary: ATG_PXRE_CIS: Attagene CIS-FACTORIAL HepG2 Assay for human Pregnane X Receptor Element (PXRE) (AID 2282957)
- Experimental conditions: HepG2 Attagene CIS-FACTORIAL PXRE reporter, mRNA; actives raise or lower the signal
The source made the active and inactive calls. Rule for the calls: active = hit-call score of the fitted dose curve at least 0.9, where 1 is the maximum; inactive = score below 0.9.

Molecule	AC50
CC(C)n1c(/C=C/[C@@H](O)C[C@@H](O)CC(=O)O)c(-c2ccc(F)cc2)c2ccccc21	3.98 µM (active)
CC(C)(Oc1ccc(Cl)cc1)C(=O)O	inactive
CCCCCCC1CCCC(=O)O1 (centres undefined)	37.5 µM (active)
CCC(=O)OCc1ccc(OC)cc1	29.7 µM (active)
Cc1ccccc1S(N)(=O)=O	inactive
CCCCOC(=O)COc1ccc(Cl)cc1Cl	inactive
Sc1nc2ccccc2s1	80.6 µM (active)
CCCC(=O)OC	inactive
COc1c2occc2cc2ccc(=O)oc12	27.3 µM (active)
CCCN[C@H]1CCc2nc(N)sc2C1	inactive
COC(=O)/C=C\C(=O)OC	6.26 µM (active)
NCc1ccccc1	inactive
CC(O)(P(=O)(O)O)P(=O)(O)O	inactive
CC1=C(CC=O)C(C)(C)CCC1	0.734 µM (active)
CC[N+](CC)(CC(=O)Nc1c(C)cccc1C)Cc1ccccc1 (tested in a mixture with another compound)	21.8 µM (active)
CC=CC(=O)O	inactive
COC(=O)[C@]1(C)CCC[C@@]2(C)[C@H]1CC=C1C=C(C(C)C)CC[C@@H]12	3.48 µM (active)
CCO[Si](OCC)(OCC)c1ccccc1	50.9 µM (active)
CCCCCCCC#N	inactive
c1ccc2c(c1)Oc1ccccc1S2	inactive
O=C(O)/C=C/C(=O)O	inactive
C=C(C)C(=O)OCCCCCC	26.5 µM (active)
NC(N)=Nc1nc(CSCCC(N)=NS(N)(=O)=O)cs1	inactive
c1cc(N(CC2CO2)CC2CO2)ccc1Cc1ccc(N(CC2CO2)CC2CO2)cc1 (centres undefined)	inactive
COc1ccc2ccccc2c1	inactive
CN(C)c1ccc(C(c2ccccc2)c2ccc(N(C)C)cc2)cc1	3.06 µM (active)
O=C(c1ccccc1)c1ccccc1O	26.7 µM (active)
O=C1NC(=O)C2CC=CCC12 (centres undefined)	inactive
c1cc[c]([Bi]([c]2ccccc2)[c]2ccccc2)cc1	4.08 µM (active)
